# System: CAL-51 cells
# Protocol Description: CAL-51 Cell Proliferation Assay
# Format: cell-based
# Assay Setup: minimal percent of DMSO control observed in the concentrations tested (Ymin-obs), 120 hours
Parameter Measured: CAL-51 Prolif Ymin
Give bare numbers.

[
  {
    "Molecule": "O=C1CCC(N2Cc3cc(Cn4ncc5c(-c6ncc(C(F)(F)F)cc6Cl)cc(N6CC(F)C6)nc54)cc(F)c3C2=O)C(=O)N1 (centres unmarked)",
    "CAL-51 Prolif Ymin": 26.78
  },
  {
    "Molecule": "Cc1cc(C(F)(F)F)cnc1-c1cc(N2CC(F)C2)nc2c1cnn2Cc1ccc2c(c1)CN(C1CCC(=O)NC1=O)C2=O (centres unmarked)",
    "CAL-51 Prolif Ymin": 30.94
  },
  {
    "Molecule": "Cc1cnc(-c2cc(N3CC(F)C3)nc3c2cnn3Cc2ccc3c(c2)CN(C2CCC(=O)NC2=O)C3=O)nc1 (centres unmarked)",
    "CAL-51 Prolif Ymin": 89.63
  },
  {
    "Molecule": "N#Cc1cnc(-c2cc(N3CC(F)C3)nc3c2cnn3Cc2ccc3c(c2)CN(C2CCC(=O)NC2=O)C3=O)c(Cl)c1 (centres unmarked)",
    "CAL-51 Prolif Ymin": 23.58
  }
]

Hi! Can you tell me CAL-51 Prolif Ymin for each of these molecules?
1. Cc1cc(Cl)cnc1-c1cc(N2CC(F)C2)nc2c1cnn2Cc1ccc2c(c1)CN([C@H]1CCC(=O)NC1=O)C2=O
2. Cc1cc(OC(F)F)cnc1-c1cc(N2CC(F)C2)nc2c1cnn2Cc1ccc2c(c1)CN([C@H]1CCC(=O)NC1=O)C2=O
3. O=C1CC[C@H](N2Cc3cc(Cn4ncc5c(-c6ccc(F)cc6F)cc(N6CC(F)C6)nc54)ccc3C2=O)C(=O)N1
4. O=C1CCC(N2Cc3cc(Cn4ncc5c(-c6ncc(F)cc6Cl)cc(N6CC[C@@H](O)C6)nc54)ccc3C2=O)C(=O)N1 (some centres unmarked)

## Result
1: 27.72; 2: 27.43; 3: 26.67; 4: 40.82

----------
# Tested On: FAK (Homo sapiens)
# Construct: homozygous knock-in of a HiBiT tag (Promega Corporation, Madison, WI) to the C-terminus of the FAK gene in its natural genomic locus; endogenous in cells; host or cells: JHH-4-FAK-HiBiT clone d01 (CRISPR-Cas9 knock-in at the endogenous locus)
# Sequence (Q05397 whole entry): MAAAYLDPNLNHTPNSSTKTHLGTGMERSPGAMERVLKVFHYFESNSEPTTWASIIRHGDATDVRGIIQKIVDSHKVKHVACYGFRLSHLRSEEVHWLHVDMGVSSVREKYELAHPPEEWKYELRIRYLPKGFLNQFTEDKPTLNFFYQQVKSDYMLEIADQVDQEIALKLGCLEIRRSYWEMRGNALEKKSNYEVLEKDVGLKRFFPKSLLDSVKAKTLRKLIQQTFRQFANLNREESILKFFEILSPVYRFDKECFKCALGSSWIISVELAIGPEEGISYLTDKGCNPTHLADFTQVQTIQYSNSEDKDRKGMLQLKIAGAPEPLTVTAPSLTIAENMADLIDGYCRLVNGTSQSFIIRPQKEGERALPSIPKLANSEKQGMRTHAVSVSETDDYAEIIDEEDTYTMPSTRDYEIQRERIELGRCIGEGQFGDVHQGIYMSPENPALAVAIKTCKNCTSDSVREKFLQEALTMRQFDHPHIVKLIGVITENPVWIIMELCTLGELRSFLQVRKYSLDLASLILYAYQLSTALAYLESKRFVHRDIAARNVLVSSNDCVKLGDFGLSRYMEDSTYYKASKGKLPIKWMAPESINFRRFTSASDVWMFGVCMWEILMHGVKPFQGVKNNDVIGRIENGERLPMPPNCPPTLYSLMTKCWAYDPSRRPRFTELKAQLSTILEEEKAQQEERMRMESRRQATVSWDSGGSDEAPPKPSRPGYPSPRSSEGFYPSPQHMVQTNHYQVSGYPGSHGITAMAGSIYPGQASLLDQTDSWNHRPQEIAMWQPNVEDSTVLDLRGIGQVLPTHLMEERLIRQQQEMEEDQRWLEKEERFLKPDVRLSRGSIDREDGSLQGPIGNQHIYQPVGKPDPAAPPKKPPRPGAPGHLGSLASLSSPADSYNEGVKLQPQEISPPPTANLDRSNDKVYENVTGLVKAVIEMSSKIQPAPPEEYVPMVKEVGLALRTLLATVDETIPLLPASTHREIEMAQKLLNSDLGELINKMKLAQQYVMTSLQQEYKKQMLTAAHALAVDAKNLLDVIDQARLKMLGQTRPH
# Protocol Description: FAK-HiBiT Degradation Assay
# Format: cell-based
# Assay Setup: JHH-4-FAK-HiBiT clone d01 cells; two hours incubation; 10-point dose response, 3-fold dilution starting at 1 μM; Nano-Glo HiBiT luminescence; read-out: FAK HiBiT EC50
Give measured DC50 for each item. Keep answers brief.
Numbers only, in nM.

[
  {
    "Compound": "O=C1CCC(N2Cc3cc(Cn4cnc5c(-c6ccc(F)cc6F)cc(N6CC(F)C6)nc54)ccc3C2=O)C(=O)N1 (stereo not drawn)",
    "DC50, nM": 0.68
  }
]

Alright, here's another compound for you.
## Task Give a short answer stating reported DC50 for O=C1CC[C@H](N2Cc3cc(Cn4ncc5c(-c6ncc(C7COC7)cc6Cl)cc(N6CC(F)C6)nc54)ccc3C2=O)C(=O)N1 (single isomer, unassigned) .
## Result 40.5

----------
# System: CAL-51 cells
# Protocol Description: CAL-51 Cell Proliferation Assay
# Type: cell-based
# Assay Setup: minimal percent of DMSO control observed in the concentrations tested (Ymin-obs), 120 hours
Parameter Measured: CAL-51 Prolif Ymin
Numbers only.

Some molecules with recorded CAL-51 Prolif Ymin:
[
  {
    "Molecule": "CN(c1cc(-c2ncc(C(F)(F)F)cc2Cl)c2cnn(Cc3ccc4c(c3)CN([C@H]3CCC(=O)NC3=O)C4=O)c2n1)C1CC(C)(O)C1 (stereo partly drawn)",
    "CAL-51 Prolif Ymin": 30.14
  },
  {
    "Molecule": "O=C1CC[C@H](N2Cc3cc(Cn4ncc5c(-c6ncc(C(F)(F)F)cc6Cl)cc(N6CC(F)C6)nc54)ccc3C2=O)C(=O)N1",
    "CAL-51 Prolif Ymin": 31.07
  },
  {
    "Molecule": "Cc1cc(C(F)(F)F)cnc1-c1cc(N2CC[C@H](O)C2)nc2c1cnn2Cc1ccc2c(c1)CN([C@H]1CCC(=O)NC1=O)C2=O",
    "CAL-51 Prolif Ymin": 10.20
  },
  {
    "Molecule": "CC(C)Oc1cnc(-c2cc(N3CC(F)C3)nc3c2cnn3Cc2ccc3c(c2)CN([C@H]2CCC(=O)NC2=O)C3=O)c(Cl)c1",
    "CAL-51 Prolif Ymin": 25.81
  },
  {
    "Molecule": "N#Cc1ccc(-c2c(Cl)c(N3CC(F)C3)nc3c2cnn3Cc2ccc3c(c2)CN(C2CCC(=O)NC2=O)C3=O)c(F)c1 (stereo not drawn)",
    "CAL-51 Prolif Ymin": 33.21
  },
  {
    "Molecule": "O=C1CC[C@H](N2Cc3nc(Cn4ncc5c(-c6ncc(C(F)(F)F)cc6Cl)cc(N6CC(F)C6)nc54)ccc3C2=O)C(=O)N1",
    "CAL-51 Prolif Ymin": 34.59
  },
  {
    "Molecule": "O=C1CCC(N2Cc3cc(Cn4cnc5c(-c6ccc(F)cc6F)cc(N6CC(F)C6)nc54)ccc3C2=O)C(=O)N1 (stereo not drawn)",
    "CAL-51 Prolif Ymin": 22.20
  },
  {
    "Molecule": "O=C1CC[C@@H](N2Cc3cc(Cn4ncc5c(-c6ncc(C7COC7)cc6Cl)cc(N6CC(F)C6)nc54)ccc3C2=O)C(=O)N1 (single isomer, unassigned)",
    "CAL-51 Prolif Ymin": 37.97
  },
  {
    "Molecule": "COc1cnc(-c2cc(N3CC(F)C3)nc3c2cnn3Cc2ccc3c(c2)CN(C2CCC(=O)NC2=O)C3=O)c(C)c1 (stereo not drawn)",
    "CAL-51 Prolif Ymin": 38.61
  },
  {
    "Molecule": "CN1CCC(Nc2cc(-c3ncc(C(F)(F)F)cc3Cl)c3cnn(Cc4ccc5c(c4)CN(C4CCC(=O)NC4=O)C5=O)c3n2)C1 (stereo not drawn)",
    "CAL-51 Prolif Ymin": 83.49
  }
]

Hi! Can you tell me CAL-51 Prolif Ymin for each of these molecules?
1. O=C1CCC(N2Cc3cc(Cn4ncc5c(-c6ncc(C(F)(F)F)cc6Cl)cc(NC6COC6)nc54)ccc3C2=O)C(=O)N1 (stereo not drawn)
2. CC(C)(O)c1ccc(-c2cc(N3CCC3)nc3c2cnn3Cc2ccc3c(c2)CN(C2CCC(=O)NC2=O)C3=O)c(Cl)c1 (stereo not drawn)

## Result
1: 91.32; 2: 55.87
